# Assay System: JAK3 (Homo sapiens, UniProt P52333)
# Construct: purchased Invitrogen
# Experiment: Assay for JAK3 Inhibition (phosphorylation of FAM-labeled substrate, Caliper LC-3000)
# Assay type: biochemical
# Stated Conditions: −log10(IC50), IC50 is the molar concentration at 50% inhibition; read-out: JAK3 pIC50 (converted)
Observable: IC50
Answer format: number, then unit.

> print(dat)
                                   compound  reported.value
1  CC[C@H](C(=O)NC(C)CO)N1Cc2ccnc3[nH]cc(c23)C1=O (some centres unmarked)          631 nM
2  CC(C)[C@H](C(=O)NC1CCS(=O)(=O)CC1)N1Cc2c(F)cnc3[nH]cc(c23)C1=O          126 nM
3  O=C(NC1CCCC1)[C@@H](CC(F)(F)F)N1Cc2ccnc3[nH]cc(c23)C1=O          398 nM
4  O=C(NC1CCCC1)[C@@H](C1CC1)N1Cc2ccnc3[nH]cc(c23)C1=O          200 nM
5          CCC(CC)N1Cc2c[nH]c3nccc(c23)C1=O          100 nM

Fill in IC50 for record CC(C)[C@H](C(=O)N1CC(C)(C#N)C1)N1Cc2ccnc3[nH]cc(c23)C1=O 12.6 nM

Provide measured IC50 value, entry: CC(C)[C@H](C(=O)N(C)CC#N)N1Cc2c(F)cnc3[nH]cc(c23)C1=O 126 nM

Please give the documented IC50 of CC(C)[C@H](C(=O)N(C)CCS(C)(=O)=O)N1Cc2c(F)cnc3[nH]cc(c23)C1=O 3980 nM

---

# Assay System: JAK3 (Homo sapiens)
# Construct: purchased Invitrogen
# Sequence (P52333 1-1124): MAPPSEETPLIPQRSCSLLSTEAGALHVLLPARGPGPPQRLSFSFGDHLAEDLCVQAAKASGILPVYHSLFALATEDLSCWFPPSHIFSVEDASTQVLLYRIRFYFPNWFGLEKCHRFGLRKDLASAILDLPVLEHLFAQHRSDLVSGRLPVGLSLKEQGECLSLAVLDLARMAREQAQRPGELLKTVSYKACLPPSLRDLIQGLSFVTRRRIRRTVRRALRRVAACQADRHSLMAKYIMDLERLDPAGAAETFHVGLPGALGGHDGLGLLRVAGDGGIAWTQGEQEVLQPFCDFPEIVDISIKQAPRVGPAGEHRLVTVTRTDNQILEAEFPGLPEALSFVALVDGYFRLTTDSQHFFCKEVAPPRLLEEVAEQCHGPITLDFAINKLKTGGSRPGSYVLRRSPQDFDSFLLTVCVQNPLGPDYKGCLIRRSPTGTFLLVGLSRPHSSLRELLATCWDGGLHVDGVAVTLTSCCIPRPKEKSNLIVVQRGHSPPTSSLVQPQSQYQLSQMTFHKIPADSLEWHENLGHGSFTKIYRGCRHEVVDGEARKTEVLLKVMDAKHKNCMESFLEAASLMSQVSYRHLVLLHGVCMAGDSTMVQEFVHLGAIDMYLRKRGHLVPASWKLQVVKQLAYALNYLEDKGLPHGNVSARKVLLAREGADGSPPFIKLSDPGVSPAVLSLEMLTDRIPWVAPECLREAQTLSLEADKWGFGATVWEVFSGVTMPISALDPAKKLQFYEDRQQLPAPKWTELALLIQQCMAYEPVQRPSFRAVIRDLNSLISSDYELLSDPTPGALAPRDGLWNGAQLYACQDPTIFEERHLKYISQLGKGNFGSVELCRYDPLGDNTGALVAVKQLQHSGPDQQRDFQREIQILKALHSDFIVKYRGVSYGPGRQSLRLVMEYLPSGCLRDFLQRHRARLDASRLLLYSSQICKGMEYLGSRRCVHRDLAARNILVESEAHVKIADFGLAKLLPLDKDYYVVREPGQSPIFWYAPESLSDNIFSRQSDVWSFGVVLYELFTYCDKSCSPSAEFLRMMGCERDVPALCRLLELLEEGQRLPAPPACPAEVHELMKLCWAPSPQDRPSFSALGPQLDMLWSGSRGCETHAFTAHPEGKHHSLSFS
# Experiment: Assay for JAK3 Inhibition (phosphorylation of FAM-labeled substrate, Caliper LC-3000)
# Format: biochemical
# Stated Conditions: −log10(IC50), IC50 is the molar concentration at 50% inhibition; read-out: JAK3 pIC50 (converted)
Rule: IC50 below 400 nM gives True, anything at or above gives False.

Example entries begin here.
> print(dat)
                                   compound    cat
1  CC[C@H](C(=O)N1CCN(c2ccccn2)CC1)N1Cc2ccnc3[nH]cc(c23)C1=O  False
2  CC(C)[C@H](C(=O)N1CC(C#N)(CF)C1)N1Cc2ccnc3[nH]cc(c23)C1=O   True
3  CC(C)[C@H](C(=O)N1CCC[C@@H]1C#N)N1Cc2c(Cl)cnc3[nH]cc(c23)C1=O   True
4  CC[C@H](C(=O)NCC(C)C)N1Cc2ccnc3[nH]cc(c23)C1=O   True
5  CC[C@H](C(=O)NCC(C)(C)O)N1Cc2ccnc3[nH]cc(c23)C1=O  False

For CC[C@H](C(=O)N1CCC(O)C1)N1Cc2ccnc3[nH]cc(c23)C1=O (stereo partly shown) , is the recorded IC50 below the cut-off of 400 nM? False

Answer whether the compound CC1(N2Cc3c[nH]c4nccc(c34)C2=O)CCN(C(=O)CC#N)CC1 has IC50 strictly less than 400 nM False

Just wondering, is IC50 of N#CC[C@H](C(=O)NC1CCCC1)N1Cc2c(Cl)cnc3[nH]cc(c23)C1=O below 400 nM? False

Bench note: check whether CC[C@H](C(=O)NC1CC1)N1Cc2ccnc3[nH]cc(c23)C1=O shows IC50 below 400 nM False

In plain terms, does O=C1c2ccnc3[nH]cc(c23)CN1CC1CCNC1 (stereo not shown) come in under 400 nM for IC50? False

Here's an entry: CC(C)[C@H](C(=O)N1CCC[C@H]1C#N)N1Cc2c(Cl)cnc3[nH]cc(c23)C1=O . Is its IC50 below 400 nM? True

hey, is IC50 for CC[C@H](C(=O)N1CCCC1)N1Cc2ccnc3[nH]cc(c23)C1=O lower than 400 nM or not? True

---

# Assay System: JAK2 (Homo sapiens)
# Construct: purchased Invitrogen
# Sequence (O60674 whole entry): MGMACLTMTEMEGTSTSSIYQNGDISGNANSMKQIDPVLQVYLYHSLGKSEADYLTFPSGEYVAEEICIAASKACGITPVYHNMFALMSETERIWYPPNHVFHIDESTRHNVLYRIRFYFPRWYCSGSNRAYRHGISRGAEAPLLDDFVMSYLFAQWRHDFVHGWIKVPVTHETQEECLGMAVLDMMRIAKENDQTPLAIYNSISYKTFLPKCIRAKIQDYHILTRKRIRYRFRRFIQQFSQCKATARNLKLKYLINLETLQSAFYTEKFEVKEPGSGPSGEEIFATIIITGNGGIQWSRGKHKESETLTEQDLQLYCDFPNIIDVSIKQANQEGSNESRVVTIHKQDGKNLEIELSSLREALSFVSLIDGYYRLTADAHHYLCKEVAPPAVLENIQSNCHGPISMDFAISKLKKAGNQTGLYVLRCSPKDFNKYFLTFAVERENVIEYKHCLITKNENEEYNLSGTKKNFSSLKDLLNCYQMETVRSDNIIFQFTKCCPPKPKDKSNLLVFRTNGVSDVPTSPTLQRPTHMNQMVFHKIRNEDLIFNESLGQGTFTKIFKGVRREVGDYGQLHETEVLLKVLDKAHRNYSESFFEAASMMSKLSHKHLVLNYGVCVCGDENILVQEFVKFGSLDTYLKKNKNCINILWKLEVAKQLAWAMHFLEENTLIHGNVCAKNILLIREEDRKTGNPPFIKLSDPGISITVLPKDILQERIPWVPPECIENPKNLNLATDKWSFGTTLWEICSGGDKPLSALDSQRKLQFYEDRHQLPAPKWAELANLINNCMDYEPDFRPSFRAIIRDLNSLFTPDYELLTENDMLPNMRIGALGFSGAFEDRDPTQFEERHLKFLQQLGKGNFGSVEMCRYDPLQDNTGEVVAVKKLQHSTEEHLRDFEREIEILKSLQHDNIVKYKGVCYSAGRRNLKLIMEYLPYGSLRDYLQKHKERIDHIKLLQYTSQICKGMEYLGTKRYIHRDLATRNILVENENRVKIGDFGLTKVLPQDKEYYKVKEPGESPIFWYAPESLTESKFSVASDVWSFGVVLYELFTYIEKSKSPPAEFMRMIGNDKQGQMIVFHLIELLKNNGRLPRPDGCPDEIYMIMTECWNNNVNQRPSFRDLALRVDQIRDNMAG
# Experiment: Assay for JAK2 Inhibition (phosphorylation of FAM-labeled substrate, Caliper LC-3000)
# Type: biochemical
# Stated Conditions: −log10(IC50), IC50 is the molar concentration at 50% inhibition; read-out: JAK2 pIC50 (converted)
Observable: log10(IC50) (log10 of the value in µM)
Values below are the log10 of the recorded IC50, with µM as the unit.

Below, 6 compounds whose answers are already recorded.
> print(dat)
                                   compound         assay.system  reported.value
1  CC(C)[C@H](C(=O)NC1CCCC1)N1Cc2ccnc3[nH]cc(c23)C1=O [Example 22]  JAK2 (Homo sapiens)           -0.20
2  CC[C@H](C(=O)NC(C)CO)N1Cc2ccnc3[nH]cc(c23)C1=O (stereo partly drawn) [Example 69]  JAK2 (Homo sapiens)            1.00
3  CC[C@H](C(=O)N1CCN(S(C)(=O)=O)CC1)N1Cc2ccnc3[nH]cc(c23)C1=O [Example 63]  JAK2 (Homo sapiens)            0.80
4  CC[C@H](C(=O)N1CCC(c2ccc(F)cc2)C1)N1Cc2ccnc3[nH]cc(c23)C1=O (stereo partly drawn) [Example 58]  JAK2 (Homo sapiens)            0.50
5  CC(C)[C@H](C(=O)N1CC(C#N)C1)N1Cc2c(Cl)cnc3[nH]cc(c23)C1=O [Example 39]  JAK2 (Homo sapiens)           -1.50
6  CC(C)[C@H](C(=O)N(C)CCC#N)N1Cc2c(F)cnc3[nH]cc(c23)C1=O [Example 43]  JAK2 (Homo sapiens)            1.10

State its log10(IC50): CC(C)(C)[C@H](C(=O)NCC#N)N1Cc2ccnc3[nH]cc(c23)C1=O [Example 83] -0.60

// Input: CC(C)C[C@H](C(=O)N1CCCC1)N1Cc2ccnc3[nH]cc(c23)C1=O [Example 21] . Output its log10(IC50) only. -0.10

Supply log10(IC50) value. Item: CC(C)[C@H](C(=O)NOCC1CC1)N1Cc2c(F)cnc3[nH]cc(c23)C1=O [Example 49] 0.30
